Measured solubility kinetic at 24 h of individual entries
Method: Solubility Studies in FaSSIF, FeSSIF, FaSSGF (24 hours, room temperature, UPLC-UV)
Type: physicochemical
Condition Description: kinetic from dmso stock; solubility in FaSSIF, 24 hours at room temperature; read-out: FaSSIF
Provide the reading as a plain figure in µM.

Take a look at these entries with their results.
INSERT INTO assay_data (compound, measurement_type, endpoint_value) VALUES
  ('CC(c1ccccc1F)c1c(F)ccc2c1NC(NCc1cccc(F)n1)=NS2(=O)=O (single isomer, unassigned)', 'solubility kinetic at 24 h', 162),
  ('C[C@@H](c1ccccc1F)c1c(F)c(F)cc2c1NC(NCc1ncccc1F)=NS2(=O)=O', 'solubility kinetic at 24 h', 30),
  ('CC(c1ccccc1F)c1c(F)ccc2c1NC(NCc1ncccc1F)=NS2(=O)=O (centres unmarked) [Compound 9-1]', 'solubility kinetic at 24 h', 114),
  ('CC(c1ccccc1F)c1c(F)ccc2c1NC(NCc1ncccc1F)=NS2(=O)=O (single isomer, unassigned) [Compound 10-1B]', 'solubility kinetic at 24 h', 133),
  ('CC(c1ccccc1F)c1c(F)ccc2c1NC(NCc1cccc(F)c1)=NS2(=O)=O (single isomer, unassigned)', 'solubility kinetic at 24 h', 158);

IN: What value of measured solubility kinetic at 24 h is listed for CC(c1ccc(F)cc1)c1c(F)ccc2c1NC(NCc1ncccc1F)=NS2(=O)=O (single isomer, unassigned) ?
OUT: 23

----------
Measured On: human MRGPRX2 (Homo sapiens)
Sequence (Q96LB1 1-330): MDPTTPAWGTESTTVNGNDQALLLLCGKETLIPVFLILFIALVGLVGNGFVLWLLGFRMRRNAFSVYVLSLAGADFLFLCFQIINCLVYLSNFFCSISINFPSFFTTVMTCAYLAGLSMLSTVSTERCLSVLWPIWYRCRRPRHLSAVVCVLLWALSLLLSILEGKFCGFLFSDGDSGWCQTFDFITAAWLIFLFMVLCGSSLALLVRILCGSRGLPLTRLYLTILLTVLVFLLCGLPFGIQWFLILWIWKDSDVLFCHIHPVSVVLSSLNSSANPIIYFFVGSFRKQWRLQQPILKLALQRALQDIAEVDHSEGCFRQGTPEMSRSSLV
Method: MRGPRX2 activity: IP-One Gq HTRF assay in CHO cells, antagonism versus 0.3 uM Cortistatin-14
Condition Description: versus 0.3 uM Cortistatin-14 agonist, CHO cells expressing human MRGPRX2, read-out: MRGPRX2 Antagonist Activity
pIC50: −log10 of the molar value.
Listed below: pIC50 values for each entry.

INSERT INTO assay_data (compound, endpoint_value) VALUES
  ('O=S1(=O)N=C(NCc2ncccc2F)Nc2c1ccc(Cl)c2Oc1cccc(F)c1Cl', '> 7.00');

IN: I would be grateful if you could share the reported pIC50 for `O=S1(=O)N=C(NCc2ccccc2C(F)(F)F)Nc2c1cc(F)c(F)c2Oc1ccccc1Cl` .
OUT: 6.30 to 7.00

IN: Could you share which pIC50 value was measured for `O=S1(=O)N=C(NCc2ccccc2C(F)(F)F)Nc2c1ccc(F)c2Oc1ccccc1Cl` ?
OUT: > 7.00

IN: What does the data say about its pIC50? Entry: CC(c1ccc(N2CCOCC2)cc1)c1c(F)ccc2c1NC(NCc1cccc(F)c1)=NS2(=O)=O (centres unmarked)
OUT: 5.60 to 6.00

----------
Method: Mouse Pharmacokinetic Studies (50 mg/kg oral gavage, plasma LC-MS/MS)
Assay type: in vivo
Condition Description: male C57BL/6 mice, non-fasted, 50 mg/kg
Item-by-item account of Cmax
Please respond with the number in µM and leave the unit unwritten.

Here are 3 compounds together with their reported answers.
INSERT INTO measurements (compound, units_symbol, endpoint_value) VALUES
  ('CC(c1ccccc1F)c1c(F)ccc2c1NC(NCc1cccc(F)c1)=NS2(=O)=O (single isomer, unassigned) [Compound 10-5A]', 'µM', 2.8),
  ('CC(c1ccc(F)cc1)c1c(F)ccc2c1NC(NCc1ncccc1F)=NS2(=O)=O (single isomer, unassigned)', 'µM', 10),
  ('CC(c1ccccc1F)c1c(F)ccc2c1NC(NCc1cccc(F)c1)=NS2(=O)=O (single isomer, unassigned) [Compound 10-5B]', 'µM', 7.1);

IN: Item CC(c1ccccc1F)c1c(F)ccc2c1NC(NCc1cccc(F)n1)=NS2(=O)=O (single isomer, unassigned) has what recorded Cmax?
OUT: 2.7

IN: // lookup Cmax for CC(c1ccccc1F)c1c(F)ccc2c1NC(NCc1ncccc1F)=NS2(=O)=O (single isomer, unassigned) [Compound 10-1A]
OUT: 4.6

----------
Measured On: human MRGPRX2 (Homo sapiens)
Sequence (Q96LB1 1-330): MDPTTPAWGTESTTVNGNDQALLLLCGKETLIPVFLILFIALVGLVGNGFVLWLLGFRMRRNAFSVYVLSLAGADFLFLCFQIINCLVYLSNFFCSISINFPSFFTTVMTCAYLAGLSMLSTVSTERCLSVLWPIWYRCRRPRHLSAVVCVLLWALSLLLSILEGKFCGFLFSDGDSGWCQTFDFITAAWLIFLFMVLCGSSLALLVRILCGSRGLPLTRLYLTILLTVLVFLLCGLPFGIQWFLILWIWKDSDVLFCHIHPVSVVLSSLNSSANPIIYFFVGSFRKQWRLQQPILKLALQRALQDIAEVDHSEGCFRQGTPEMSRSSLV
Method: MRGPRX2 activity: IP-One Gq HTRF assay in CHO cells, antagonism versus 0.3 uM Cortistatin-14
Condition Description: versus 0.3 uM Cortistatin-14 agonist, CHO cells expressing human MRGPRX2, read-out: MRGPRX2 Antagonist Activity
Measurement Type: IC50

Answered cases to consult:
INSERT INTO assay_data (molecule, endpoint_value) VALUES
  ('O=S1(=O)N=C(NCc2ccc(F)cc2)Nc2c1cc(F)c(F)c2Cc1ccccc1Cl', '501 to 1000 nM'),
  ('O=S1(=O)N=C(NCc2ncccc2O)Nc2c1ccc(F)c2Oc1ccccc1Cl', '> 2500 nM');

IN: Form field: reported IC50 of `[2H]c1ccc2c(c1[C@H](C)c1ccccc1F)NC(NCc1ncccc1F)=NS2(=O)=O`
OUT: < 100 nM

IN: Field request: IC50 | item: `O=S1(=O)N=C(Nc2ccc(F)cc2)Nc2c1cc(F)c(F)c2Cc1ccccc1Cl`
OUT: 501 to 1000 nM

IN: What value of IC50 has been recorded for this entry: `O=S1(=O)N=C(NCc2ccncc2F)Nc2c(Cc3ccccc3Cl)cccc21`
OUT: < 100 nM

IN: # query: IC50 of entry CC(c1ccccc1F)c1c(F)ccc2c1NC(NCc1cccnc1)=NS2(=O)=O (stereo not shown)
OUT: 100 to 500 nM

IN: # get_value(readout='IC50', item= `O=S1(=O)N=C(NCc2cccc(Cl)c2F)Nc2c1ccc(F)c2Oc1ccccc1Cl` )
OUT: < 100 nM

IN: Fill in: IC50 of `C[C@H](c1ccccc1F)c1c(F)ccc2c1NC(NCc1ccc(F)cc1F)=NS2(=O)=O` is ___
OUT: < 100 nM

IN: Record request: IC50 value, item `O=S1(=O)N=C(NCc2ccc(F)cc2F)Nc2c1cc(F)c(F)c2Cc1ccccc1Cl`
OUT: 100 to 500 nM

IN: Value lookup for IC50; key = `O=S1(=O)N=C(NCc2ncccc2F)Nc2c1ccc(Cl)c2Oc1cccc(Cl)c1Cl`
OUT: < 100 nM

----------
Measured On: human MRGPRX2 (Homo sapiens)
Method: MRGPRX2 activity: IP-One Gq HTRF assay in CHO cells, antagonism versus 0.3 uM Cortistatin-14
Condition Description: versus 0.3 uM Cortistatin-14 agonist, CHO cells expressing human MRGPRX2, read-out: MRGPRX2 Antagonist Activity
IC50 values by entry

# count of solved cases: 6
INSERT INTO assay_data (compound, endpoint_value) VALUES
  ('O=S1(=O)N=C(NCc2ncccc2Cl)Nc2c1cc(F)c(F)c2Oc1ccccc1Cl', '< 100 nM'),
  ('Cc1ccc(C(C)c2c(F)ccc3c2NC(NCc2cccc(F)c2)=NS3(=O)=O)cc1 (stereo not shown)', '100 to 500 nM'),
  ('COc1ccccc1CNC1=NS(=O)(=O)c2ccc(F)c(Oc3ccccc3Cl)c2N1', '100 to 500 nM'),
  ('O=S1(=O)N=C(NCc2ncccc2F)Nc2c(Cc3ccccc3Cl)cccc21', '< 100 nM'),
  ('O=S1(=O)N=C(NCc2cccc(Cl)c2F)Nc2c1ccc(F)c2Cc1ccccc1Cl', '< 100 nM'),
  ('CC(c1cccc(F)c1Cl)c1c(F)ccc2c1NC(NCc1ncccc1F)=NS2(=O)=O (stereo not shown)', '< 100 nM');

IN: Value lookup for IC50; key = CC(c1cccc(OC(F)(F)F)c1)c1c(F)ccc2c1NC(NCc1cccc(F)c1)=NS2(=O)=O (stereo not shown)
OUT: 100 to 500 nM

IN: Consider the compound `O=S1(=O)N=C(NCc2ccccc2F)Nc2c(CCc3ccccc3)cccc21` and give its measured IC50.
OUT: < 100 nM

IN: What does the record list as IC50 for `N#Cc1ccccc1Oc1c(F)ccc2c1NC(NCc1ncccc1F)=NS2(=O)=O` ?
OUT: < 100 nM

IN: For the compound shown here, CC(c1ccccc1F)c1c(F)ccc2c1NC(NCc1ncccc1F)=NS2(=O)=O (stereo not shown) [Compound 9-1] , give the reported IC50.
OUT: < 100 nM

IN: What IC50 value was documented for this compound, `C[C@H](c1ccccc1F)c1c(F)c(F)cc2c1NC(NCc1ncccc1F)=NS2(=O)=O` ?
OUT: 100 to 500 nM

IN: Which IC50 is listed for `COc1ccccc1CNC1=NS(=O)(=O)c2cc(F)c(F)c(Cc3ccccc3Cl)c2N1` ?
OUT: 501 to 1000 nM

IN: Which IC50 value is on record for `O=S1(=O)N=C(NCc2ncccc2F)Nc2c1ccc(F)c2Oc1c(Cl)ccc2ccccc12` ?
OUT: < 100 nM

IN: Which IC50 reading was recorded for the compound `O=S1(=O)N=C(NCc2ncccc2F)Nc2c1cc(F)c(F)c2Oc1ccccc1Cl` ?
OUT: < 100 nM

IN: For the compound shown here, `[2H]C([2H])(NC1=NS(=O)(=O)c2ccc(F)c(Oc3ccccc3Cl)c2N1)c1ccccc1` , give the reported IC50.
OUT: 100 to 500 nM

IN: Which IC50 reading was recorded for the compound `O=S1(=O)N=C(NCc2ccccc2F)Nc2c(Cc3c(Cl)cccc3Cl)cccc21` ?
OUT: < 100 nM
